Test system: Yap1 mRNA
assay-summary: Dose-dependent inhibition of human Yap1 in SNU-449 cells (Example 9, RTS36584)
Type: cell-based
cond: 2000.00 nM, free uptake, approximately 48 hours
Strand notation (5' to 3'): a small letter for the sugar, then the base; units joined by * are phosphorothioate-linked, units joined directly phosphodiester-linked; [ ] holds rarer units or linkages, { } end groups; capitals alone tell only the bases. e = 2'-O-(2-methoxyethyl) (MOE); k = constrained ethyl (cEt); [5mC] = 5-methylcytosine; d = 2'-deoxy (DNA); m = 2'-O-methyl
# % UTC (Yap1 mRNA) >= 5 % UTC gives YES, anything below gives NO

Sample answers from the record:
# bool: % UTC (Yap1 mRNA) of 1198614 (kT*kA*kA*dA*dG*dT*dG*dT*dA*dT*dG*dT*k[5mC]*kA*kG*eA; antisense) [compound 1198614] >= 5 % UTC
NO

Then this substance: 1198439 (AGTGTATGTCAGAAGA; sugar, 5-methylcytosine, phosphorothioate modifications, further chemistry not given here) [compound 1198439]
NO

Then this substance: 1200803 (kG*kG*kT*dA*dT*mA*dA*d[5mC]*dT*dG*dG*dG*d[5mC]*kA*kA*kA; antisense) [compound 1200803]
YES

Then this substance: 1200798 (kT*kA*kT*dT*dA*mG*dA*dG*dT*dA*dT*dG*dT*kG*kG*k[5mC]; antisense) [compound 1200798]
YES

Then this substance: 1197216 (kA*kA*kA*dG*dT*dG*dT*dA*dT*dG*dT*d[5mC]*dA*kG*kA*kA; antisense) [compound 1197216]
NO

Then this substance: 1197179 (kT*kG*kG*dA*dA*dA*dT*dT*dG*dT*d[5mC]*dT*d[5mC]*kA*kT*kG; antisense) [compound 1197179]
YES

Further cases:
# bool: % UTC (Yap1 mRNA) of 1197236 (kT*kA*kT*dT*mA*dG*dA*dG*dT*dA*dT*dG*dT*kG*kG*k[5mC]; antisense) [compound 1197236] >= 5 % UTC
YES

Then this substance: 1197269 (kT*kA*kA*dA*mG*dT*dG*dT*dA*dT*dG*dT*d[5mC]*kA*kG*kA; antisense) [compound 1197269]
NO

Then this substance: 1198724 (kA*eG*kA*dG*dT*dA*dT*dG*dT*dG*dG*d[5mC]*eA*eA*kT*kA; antisense) [compound 1198724]
NO

Then this substance: 1198799 (k[5mC]*eT*kA*dA*dG*dT*dA*dA*dG*dG*dT*dT*eT*e[5mC]*k[5mC]*k[5mC]; antisense) [compound 1198799]
NO

Then this substance: 1009326 (kT*kA*kT*dT*dA*dG*dA*dG*dT*dA*dT*dG*dT*kG*kG*k[5mC]; antisense) [compound 1009326]
NO
